- measured_target: CDC25B (Homo sapiens)
- Construct: GST (pGEX vector) (N)
- Sequence (P30305 whole entry): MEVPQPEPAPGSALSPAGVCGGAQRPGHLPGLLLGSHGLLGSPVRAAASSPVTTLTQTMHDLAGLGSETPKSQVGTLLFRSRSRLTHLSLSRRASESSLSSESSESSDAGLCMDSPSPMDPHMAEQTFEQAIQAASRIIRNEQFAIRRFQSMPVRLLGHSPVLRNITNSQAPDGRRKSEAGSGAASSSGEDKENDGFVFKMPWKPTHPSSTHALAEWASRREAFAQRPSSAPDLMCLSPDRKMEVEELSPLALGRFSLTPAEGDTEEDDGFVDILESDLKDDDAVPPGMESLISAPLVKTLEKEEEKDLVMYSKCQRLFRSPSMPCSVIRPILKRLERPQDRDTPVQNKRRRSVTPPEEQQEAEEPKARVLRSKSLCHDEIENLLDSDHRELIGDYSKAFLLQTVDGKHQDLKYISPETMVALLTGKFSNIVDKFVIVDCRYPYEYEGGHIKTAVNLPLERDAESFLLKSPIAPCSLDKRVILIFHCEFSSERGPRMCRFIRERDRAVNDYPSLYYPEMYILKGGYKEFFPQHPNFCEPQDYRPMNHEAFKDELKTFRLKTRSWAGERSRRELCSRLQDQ
- assay_notes: Enzymatic assay (OMFP substrate) on recombinant CDC25B
- cond: mixed-model inhibition equation
measured_property: Ki (nM)

{"columns": ["compound", "measured_result"],
 "data": [
  ["COc1cccc(SC2=CC(=O)c3cccc(O)c3C2=O)c1 [UPD-795]", 440]
]}

---

- measured_target: CDC25A (Homo sapiens, UniProt P30304)
- Construct: GST (pGEX vector) (N)
- Sequence (P30304 whole entry): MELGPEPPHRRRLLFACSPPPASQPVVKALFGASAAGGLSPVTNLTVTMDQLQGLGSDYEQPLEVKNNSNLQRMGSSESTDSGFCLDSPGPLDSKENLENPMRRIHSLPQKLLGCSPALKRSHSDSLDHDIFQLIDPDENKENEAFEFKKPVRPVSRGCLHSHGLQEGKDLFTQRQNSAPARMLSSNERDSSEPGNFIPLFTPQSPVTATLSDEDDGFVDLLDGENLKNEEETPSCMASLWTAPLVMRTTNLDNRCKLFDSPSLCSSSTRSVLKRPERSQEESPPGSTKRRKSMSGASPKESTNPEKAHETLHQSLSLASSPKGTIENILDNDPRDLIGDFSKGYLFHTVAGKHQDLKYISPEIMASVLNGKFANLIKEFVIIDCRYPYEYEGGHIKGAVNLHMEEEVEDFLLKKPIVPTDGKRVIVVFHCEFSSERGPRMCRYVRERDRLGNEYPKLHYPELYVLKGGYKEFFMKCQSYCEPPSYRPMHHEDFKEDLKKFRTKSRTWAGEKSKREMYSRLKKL
- assay_notes: Enzymatic assay (OMFP substrate) on recombinant CDC25A
- cond: mixed-model inhibition equation

{"columns": ["compound", "Ki / nM"],
 "data": [
  ["COc1cccc(SC2=CC(=O)c3cccc(O)c3C2=O)c1 [UPD-795]", 1180]
]}
